biological target: wtPSP (human phosphoserine phosphatase, PSP) (Homo sapiens, UniProt P78330, D32G); construct: recombinant human PSP with His-tag, plasmid pET28_hPSP, E. coli BL21(DE3), Talon purification, homodimer (54 kDa expected; 53 kDa by SEC); assay: PNP-coupled phosphate release assay
Sequence (P78330 whole entry D32G): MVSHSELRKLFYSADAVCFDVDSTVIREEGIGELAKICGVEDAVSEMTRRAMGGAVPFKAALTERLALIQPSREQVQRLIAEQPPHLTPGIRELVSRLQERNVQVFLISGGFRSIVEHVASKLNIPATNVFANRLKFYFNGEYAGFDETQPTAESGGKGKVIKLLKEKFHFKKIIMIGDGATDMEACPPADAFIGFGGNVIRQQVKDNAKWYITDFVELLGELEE
OBSERVED_PROPERTY: pIC50
Field pIC50 (float): negative decimal logarithm of the concentration in molar.

Bench note, wtPSP (human phosphoserine phosphatase, PSP) (Homo sapiens, UniProt P78330, D32G): N[C@@H](CO)C(=O)O [L-Ser] , pIC50 reads 3.13

---

target: wtPSP (human phosphoserine phosphatase, PSP) (Homo sapiens, UniProt P78330); construct: recombinant human PSP with His-tag, plasmid pET28_hPSP, E. coli BL21(DE3), Talon purification, homodimer (54 kDa expected; 53 kDa by SEC); assay: PNP-coupled phosphate release assay
Sequence (P78330 whole entry): as the sequence (P78330 whole entry D32G) above, with G32D counted along it
OBSERVED_PROPERTY: pIC50
Field pIC50 (float): negative decimal logarithm of the concentration in molar.

Reported pIC50 for N[C@@H](CO)C(=O)O was 3.56

This collection of values is drawn from paper PMC12443467.
